Each entry below carries its reported Population Tubulin-Different-Phenotype (%).
Tested on: U2OS
METHOD NOTES: Multiplex assay against U2OS
Format: toxicity, cell-based
CONDITION: human, 24 h, 10 µM, compound concentration 10 uM, replicate 1
MEASUREMENT NAME: Population Tubulin-Different-Phenotype (%)

molecule=CC(C)(C)NC[C@H](O)COc1nsnc1N1CCOCC1 subject_of_test=U2OS unit_abbreviation=% result_number=5
molecule=CC(C)NC(=O)N1CC[C@H](NC2=Nc3cc(F)ccc3N(CC(F)F)c3ccc(Cl)cc32)C1 subject_of_test=U2OS unit_abbreviation=% result_number=79
molecule=C=CC(=O)Nc1cccc(Sc2nc(Nc3ccc(N4CCN(C)CC4)cc3)ncc2Cl)c1 subject_of_test=U2OS unit_abbreviation=% result_number=18
molecule=CNC(=O)Nc1ccc2c(c1)[C@@]1(CC2)OC(=O)N(CC(=O)N(Cc2ccc(F)cc2)[C@@H](C)C(F)(F)F)C1=O subject_of_test=U2OS unit_abbreviation=% result_number=17
molecule="Cc1ccc2c(c1)c1c(n2CCc2ccc(C)nc2)CCN(C)C1 [LATREPIRDINE]" subject_of_test=U2OS unit_abbreviation=% result_number=100
molecule=Cc1cc(NC(=O)c2cccc(S(F)(F)(F)(F)F)c2)cc(-n2ccn3nc(-c4cccnc4)cc23)c1 subject_of_test=U2OS unit_abbreviation=% result_number=53
molecule=CC(C)CC(=O)Nc1[nH]nc2c1CN(C(=O)C1CCN(C)CC1)C2(C)C subject_of_test=U2OS unit_abbreviation=% result_number=33
molecule=COc1ccccc1CN[C@H]1C2CCN(CC2)[C@H]1C(c1ccccc1)c1ccccc1 subject_of_test=U2OS unit_abbreviation=% result_number=69
molecule=COC(=O)C1=C(C)NC(C)=C(C(=O)OCCCN2CCC(c3ccccc3)(c3ccccc3)CC2)[C@H]1c1cccc([N+](=O)[O-])c1 subject_of_test=U2OS unit_abbreviation=% result_number=100
molecule=CC(C)c1noc(N2CCC(COc3ccc(-c4ccc(S(C)(=O)=O)cc4)nc3)CC2)n1 subject_of_test=U2OS unit_abbreviation=% result_number=14
molecule=COc1ccc(-c2ccc3ncc4c(c3c2)n(-c2ccc(N3CCNCC3)c(C(F)(F)F)c2)c(=O)n4C)cn1.O=C(O)/C=C\C(=O)O subject_of_test=U2OS unit_abbreviation=% result_number=100
molecule="CCc1nn(CCCN2CCN(c3cccc(Cl)c3)CC2)c(=O)n1CCOc1ccccc1.Cl [NEFAZODONE HYDROCHLORIDE]" subject_of_test=U2OS unit_abbreviation=% result_number=100
molecule="COc1cc2ncn(-c3cc(OCc4ccccc4C(F)(F)F)c(C(N)=O)s3)c2cc1OC [GW843682X]" subject_of_test=U2OS unit_abbreviation=% result_number=98
molecule="O=C(c1cc2c(cc1F)OC(c1ccc(F)cc1)(c1ccc(Cl)cc1Cl)O2)N1CCOCC1 (stereo not drawn)" subject_of_test=U2OS unit_abbreviation=% result_number=100
molecule=CNC(=O)Nc1ccc(-c2nc(N3CC4CCC(C3)O4)c3cnn(C4CCC5(CC4)OCCO5)c3n2)cc1 subject_of_test=U2OS unit_abbreviation=% result_number=93
molecule=CCc1ccc(OCc2ccccc2C(=O)Nc2ccc3nc(C)cc(N)c3c2)cc1.Cl subject_of_test=U2OS unit_abbreviation=% result_number=95
molecule=Cl.O=C(O)c1cc(-c2ccc(C3CCNCC3)cc2)c2ccc(-c3ccc(C(F)(F)F)cc3)cc2c1 subject_of_test=U2OS unit_abbreviation=% result_number=13
molecule="CC1=C(C(=O)Nc2cc3cn[nH]c3cc2F)C(c2ccc(C(F)(F)F)cc2)CC(=O)N1 (stereo not drawn)" subject_of_test=U2OS unit_abbreviation=% result_number=4
molecule=COc1cc(Nc2nccc(-c3cnn4nc(OC)ccc34)n2)cc(C(F)(F)F)c1 subject_of_test=U2OS unit_abbreviation=% result_number=15
molecule=CN1CCN(Cc2ccc(Nc3ncc(Cl)c(Nc4ccccc4S(=O)(=O)N(C)C)n3)cc2)CC1 subject_of_test=U2OS unit_abbreviation=% result_number=22
molecule=C=CC(=O)Nc1ccc2[nH]c(=O)n(C3CCN(Cc4ccc(-c5nc6cc[nH]c(=O)c6cc5-c5ccccc5)cc4)CC3)c2c1 subject_of_test=U2OS unit_abbreviation=% result_number=26
molecule=Cc1c[nH]c2nccc(Oc3c(F)cc(Nc4cc(Cl)nc(N)n4)cc3F)c12 subject_of_test=U2OS unit_abbreviation=% result_number=16
molecule="Cc1cccc(CN2CCN(C(c3ccccc3)c3ccc(Cl)cc3)CC2)c1.Cl.Cl (stereo not drawn)" subject_of_test=U2OS unit_abbreviation=% result_number=61
